Where do these numbers come from? They come from the RNAGym collection of RNA variant scans (doi:10.1101/gr.219683.116).

Hi there, I'd appreciate the recorded exon inclusion enrichment index for every entry that follows.
B1: mRNA-splicing (parent)
chain: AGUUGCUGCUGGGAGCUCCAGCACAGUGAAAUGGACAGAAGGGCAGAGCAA

Variants of: B1
Assay: exon inclusion enrichment index; higher = more inclusion; WT1 exon 5 minigene, HEK293

1. AGUUACCACCGGGAGCUCCAGCACAGUGAAAUAUACAGAAGGGCAGAGCAA [G5A U7C G8A U10C G33A G34U]: 0.361

Give one value of exon inclusion enrichment index per listed variant.
1. AGUUCAUUCAGGGAGCUCCAGCACAGUGAAAUGGACAGAAGGGCAGAGCAA [G5C C6A G8U U10A]
2. AGUUUCUUUUGGGAGACCCAGCACAGUGAAAUGGACAGAAGGGCAGAGCAA [G5U G8U C9U C16A U17C]
3. AGUUUCUUUUGGGAGCUCCAGCACAGUGAAAAAGACAGAAGGGCAGAGCAA [G5U G8U C9U U32A G33A]
4. AGUUCUUCUCGGGAGCUCCAGCACAGUGAAAUGGACAGAAGAUCAGAGCAA [G5C C6U G8C C9U U10C G42A G43U]
5. AGUUACCAUGGGGAGCUCCAGCACAGUGAAAUGGACAGAAGGGCAGAGCAA [G5A U7C G8A C9U U10G]

1: 0.0451; 2: 0.0818; 3: 0.0443; 4: 3.86; 5: 0.887
